Values were extracted from paper PMC5733478.

Here the recorded % 25 nM CA200645 binding is given for each entry.
target-system: human A3AR (Homo sapiens, UniProt P0DMS8)
Construct: expressed in transfected cells
Sequence (P0DMS8 whole entry): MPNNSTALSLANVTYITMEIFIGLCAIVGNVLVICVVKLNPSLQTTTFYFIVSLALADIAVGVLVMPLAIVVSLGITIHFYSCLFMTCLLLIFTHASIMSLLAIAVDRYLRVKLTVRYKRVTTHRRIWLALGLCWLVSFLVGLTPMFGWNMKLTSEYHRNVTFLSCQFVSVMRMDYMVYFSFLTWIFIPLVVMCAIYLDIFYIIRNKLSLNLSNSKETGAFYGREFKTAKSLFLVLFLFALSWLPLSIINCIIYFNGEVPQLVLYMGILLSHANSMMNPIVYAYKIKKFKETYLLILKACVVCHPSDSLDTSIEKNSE
assay-method-text: LOPAC library primary screen: single concentration (10 μM) inhibition of 25 nM CA200645 binding, PHERAstar FS
Counter-ions that a name gives are not always drawn.

# molecule, % 25 nM CA200645 binding [%]
measured = [
    ("CC[N+](CC)(CC)CC [Tetraethylammonium chloride]", 94.7),
    ("CC(N)(Cc1ccc(O)c(O)c1)C(=O)O (racemic)", 86.8),
    ("Nc1ncnc2c1ncn2C1CCCO1 (centres unmarked)", 102.7),
    ("S=C(NC1CCCCC1)N1CCC(c2cnc[nH]2)CC1 [Thioperamide maleate]", 99.7),
    ("O.O.O=C(Nc1ccc2c(c1)CCN(Cc1ncn[nH]1)C2)c1ccccc1-c1ccc(C(F)(F)F)cc1 [CP-346086 dihydrate]", 98.2),
]
